Measured self-splicing fitness (ln) accompanies every entry in the list below.
- test.details: self-splicing fitness, log relative to wild type (ln ratio); higher = more splicing; Tetrahymena group I intron in knt gene, E. coli kanamycin selection, DiMSum; sequences stand for … in CUCUCU…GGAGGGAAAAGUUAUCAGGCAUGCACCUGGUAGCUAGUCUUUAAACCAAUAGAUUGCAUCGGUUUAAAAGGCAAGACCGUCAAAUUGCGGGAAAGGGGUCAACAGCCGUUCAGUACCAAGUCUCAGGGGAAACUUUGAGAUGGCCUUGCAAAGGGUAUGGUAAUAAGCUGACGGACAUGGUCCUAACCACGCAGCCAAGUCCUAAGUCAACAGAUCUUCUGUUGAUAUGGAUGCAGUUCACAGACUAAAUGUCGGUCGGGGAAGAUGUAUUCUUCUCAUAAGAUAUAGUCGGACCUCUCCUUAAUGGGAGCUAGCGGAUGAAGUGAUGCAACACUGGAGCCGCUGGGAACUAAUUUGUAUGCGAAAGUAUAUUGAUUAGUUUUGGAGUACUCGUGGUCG;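 also: selection with 25 µg/mL kanamycin versus none on LB agar overnight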
- cond: 37 °C

{"residue.codes": "UUUAAGCAAUAUUACGAGGU", "self-splicing fitness (ln)": -2.04}
{"residue.codes": "AAAUAGCAAUAUUACGCCAG", "self-splicing fitness (ln)": -2.09}
{"residue.codes": "UCUCAGCAAUAUUACGUUUU", "self-splicing fitness (ln)": -3.25}
{"residue.codes": "GCCUAGCAAUAUUACGGGCG", "self-splicing fitness (ln)": -1.02}
